# Test system: biotinyl-Val-oxazolone
# protocol summary: self-aminoacylation, catalytic enhancement (BVO) (fold over background); higher = more active; k-Seq, kA / k0A0; sequences stand for … in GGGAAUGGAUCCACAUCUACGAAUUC…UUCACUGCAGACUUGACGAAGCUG
Fewer inactive variants are shown than the library holds.
Readings of self-aminoacylation for the listed sequences
Lab note: write the figure by itself, no unit.

The cases that follow already have their self-aminoacylation on record.
AUUCACCAAGGUCAUCGGGCG [Fam2.2 aminoacylation ribozyme variant]    3.64
ACUCACCUAGGUCAUUGGGUG [Fam2.2 aminoacylation ribozyme variant]    2.56
GUUACCCUGGCCAUCGAGUGA [Fam2.1 aminoacylation ribozyme variant]    5
AUGCACGUAGGUCAUCGGGUG [Fam2.2 aminoacylation ribozyme variant]    3.89
CCACACUUCAUGCAAUGGGUC [Fam1B.1 aminoacylation ribozyme variant]    0.712
AUUACCCUGGUCAUCGAGGCA [Fam2.1 aminoacylation ribozyme variant]    1.59
CUACUUCAAGCAAUCGCUCUG [Fam1A.1 aminoacylation ribozyme variant]    0.943
ACUACGCUGGUCAUCGAGUGA [Fam2.1 aminoacylation ribozyme variant]    4.04

Kindly consider the entry below.
Query: Could you tell me which self-aminoacylation is on file for CUUCACCUAGGUCUUCGGGUG [Fam2.2 aminoacylation ribozyme variant] ?
Result: 5.98

---

# System: biotinyl-Ile-oxazolone
# protocol summary: self-aminoacylation, catalytic enhancement (BIO) (fold over background); higher = more active; k-Seq, kA / k0A0; sequences stand for … in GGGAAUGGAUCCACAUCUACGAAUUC…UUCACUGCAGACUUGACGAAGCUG
Variants at the floor of the assay were thinned out.
Binary classification by self-aminoacylation, with 0.9 as an inclusive lower bound for condition met; all other cases are condition not met.

See these solved cases before continuing.
CUACUCCGAACAAUCGGUCUG [Fam1A.1 aminoacylation ribozyme variant]    condition not met
AAGUUUGUUAAUAGUCGCAAA [Fam3.1 aminoacylation ribozyme variant]    condition met
CUUAACCUAGGUCAUCGGGUG [Fam2.2 aminoacylation ribozyme variant]    condition met
CUACUUUAUACAAUCGGUCUG [Fam1A.1 aminoacylation ribozyme variant]    condition not met

Query: Decide: self-aminoacylation of AUGACCCUCGUCAUCGAGUGA [Fam2.1 aminoacylation ribozyme variant] >= 0.9?
Result: condition met

---

# System: biotinyl-Trp-oxazolone
# protocol summary: self-aminoacylation, catalytic enhancement (BWO) (fold over background); higher = more active; k-Seq, kA / k0A0; sequences stand for … in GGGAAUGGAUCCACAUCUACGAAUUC…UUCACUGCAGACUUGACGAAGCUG
Fewer inactive variants are shown than the library holds.
property measured: self-aminoacylation

The cases that follow already have their self-aminoacylation on record.
GAGUUAGCUAAUAGUCGCAAG [Fam3.1 aminoacylation ribozyme variant]    2.62
AUAACCCUCGUCAUCGAGUGA [Fam2.1 aminoacylation ribozyme variant]    3.79

Query: Could you tell me which self-aminoacylation is on file for AAGUUUGCUAAUAAUCGGAAG [Fam3.1 aminoacylation ribozyme variant] ?
Result: 0.66

Query: Same question, AUUACCCUGGCCAACGAGUGA [Fam2.1 aminoacylation ribozyme variant] this time
Result: 5.43

Query: Same question, AUUACCGUGGUCACCGAGUGA [Fam2.1 aminoacylation ribozyme variant] this time
Result: 2.95

Query: Same question, GCACAUUUCAAGCAAUCGGUC [Fam1B.1 aminoacylation ribozyme variant] this time
Result: 3.16

Query: Same question, AUUCCCCUGGUCAUCAAGUGA [Fam2.1 aminoacylation ribozyme variant] this time
Result: 2.34

Query: Same question, CUACUUCGAACAAUCGGUCCG [Fam1A.1 aminoacylation ribozyme variant] this time
Result: 0.959

Query: Same question, AUUGACCUAGGUCAACGGGUG [Fam2.2 aminoacylation ribozyme variant] this time
Result: 2.72
